# Test system: DU-145
# Measurement Protocol: Inhibition of cells growth by colorimetric assay (SRB)
# Test Conditions: Homo sapiens, DU-145, 48 h, read-out: TGI DU145
# Description: This form of the assay employs 96 well cell culture microplates of 9 mm diameter (Faircloth, 1988; Mosmann, 1983). Most of the cell lines are obtained from American Type Culture Collection (ATCC) derived from different human cancer types. […] The values for mean +/− SD of data from triplicate wells are calculated. Some parameters for cellular responses can be calculated: GI=growth inhibition, TGI=total growth inhibition (cytostatic effect) and LC=cell killing (cytotoxic effect).
Experimental Readout: log10 IC (TGI) (log10 of the value in µM)

CCCCCCCCCCCCCCCC(=O)NC1CS[C@@H]2c3c(OC(C)=O)c(C)c4c(c3[C@H](COC1=O)N1C2[C@@H]2N[C@@H](Cc3cc(C)c(OC)c(O)c32)[C@@H]1C#N)OCO4 (some centres unmarked)    0.68
C=CCOc1c(C)c2c(c3c1CC1[C@H]4c5c(cc(C)c(OC)c5O)C[C@@H]([C@H](C#N)N1[C@H]3CN)N4C)OCO2 (some centres unmarked)    0.03
COc1c(C)cc2c(c1O)[C@H]1N[C@@H](C2)[C@H](C#N)N2C1[C@@H]1SCC(NC(=O)C(F)(F)F)C(=O)OC[C@H]2c2c3c(c(C)c(OC(C)=O)c21)OCO3 (some centres unmarked)    -3.02
C=CCN1[C@@H]2c3c(cc(C)c(OC)c3O)C[C@H]1[C@H](C#N)N1C2[C@@H]2SCC(NC(=O)CCCCCCCCCCCCCCC)C(=O)OC[C@H]1c1c3c(c(C)c(OC(C)=O)c12)OCO3 (some centres unmarked)    1.06
COc1c(C)cc2c(c1OC(=O)/C=C/c1ccccc1)[C@H]1N[C@@H](C2)[C@H](C#N)N2C1[C@@H]1SCC(NC(=O)C(F)(F)F)C(=O)OC[C@H]2c2c3c(c(C)c(OC(C)=O)c21)OCO3 (some centres unmarked)    -1.01

* * *

# Tested on: SK-MEL-28
# Measurement Protocol: Inhibition of cells growth by colorimetric assay (SRB)
# Test Conditions: Homo sapiens, SK-MEL-28, 48 h, read-out: LC50 MEL-28
Documented CC50 across a set of compounds
Experimental Readout: CC50 (nM)

C=CCN1[C@@H]2c3c(cc(C)c(OC)c3OC(=O)/C=C/c3ccccc3)C[C@H]1[C@H](C#N)N1C2[C@@H]2SCC(NC(=O)C(F)(F)F)C(=O)OC[C@H]1c1c3c(c(C)c(OC(C)=O)c12)OCO3 (stereo partly drawn)    11400
C=CCN1[C@@H]2c3c(cc(C)c(OC)c3O)C[C@H]1[C@H](C#N)N1C2[C@@H]2SCC(N)C(=O)OC[C@H]1c1c3c(c(C)c(OC(C)=O)c12)OCO3 (stereo partly drawn)    1030
COc1c(C)cc2c(c1O)[C@H]1N[C@@H](C2)[C@H](C#N)N2C1[C@@H]1SCC(NC(C)=O)C(=O)OC[C@H]2c2c3c(c(C)c(OC(C)=O)c21)OCO3 (stereo partly drawn)    10.7

* * *

# System: A-549
# Measurement Protocol: cells
# Test Conditions: Homo sapiens, A549, 48 h, read-out: A549 LC50
Documented CC50 across a set of molecules
Experimental Readout: CC50 (nM)

C=CCOc1c(C)c2c(c3c1CC1[C@H]4c5c(cc(C)c(OC)c5O)C[C@@H]([C@H](C#N)N1[C@H]3CNC(=O)[C@H](CSCC1c3ccccc3-c3ccccc31)NC(=O)OC(C)(C)C)N4C)OCO2 (stereo partly shown)    55700
COc1c(C)cc2c(c1OC(=O)/C=C/c1ccccc1)[C@H]1N[C@@H](C2)[C@H](O)N2C1[C@@H]1SCC(NC(=O)C(F)(F)F)C(=O)OC[C@H]2c2c3c(c(C)c(OC(C)=O)c21)OCO3 (stereo partly shown)    1030
COc1cc2c(cc1O)CCN[C@]21C[S+]([O-])[C@@H]2c3c(OC(C)=O)c(C)c4c(c3[C@H](COC1=O)N1C2C2c3c(cc(C)c(OC)c3O)C[C@@H]([C@@H]1O)N2C)OCO4 (stereo partly shown) [Et-759B]    702
COc1ccc2[nH]c3c(c2c1)CCN[C@]31CS[C@@H]2c3c(OC(C)=O)c(C)c4c(c3[C@H](COC1=O)N1C2[C@@H]2N[C@@H](Cc3cc(C)c(OC)c(O)c32)[C@@H]1O)OCO4 (stereo partly shown)    1120
